# target.desc: A*11:01 (human), P04439
# run.conditions: modification not given
pIC50: −log10 of the molar value.
measured.endpoint: pIC50

1) VTFKNAHAK [SEQ ID NO: 309 serotype 3]    7.77
